Just for reference, patent US20100267697A1 is where these values come from.

- Target or system: Cav2.2 (Homo sapiens)
- Construct: expressed in transfected cells; host or cells: HEK-293T/17 (transient, FuGENE 6)
- Sequence (Q00975 whole entry): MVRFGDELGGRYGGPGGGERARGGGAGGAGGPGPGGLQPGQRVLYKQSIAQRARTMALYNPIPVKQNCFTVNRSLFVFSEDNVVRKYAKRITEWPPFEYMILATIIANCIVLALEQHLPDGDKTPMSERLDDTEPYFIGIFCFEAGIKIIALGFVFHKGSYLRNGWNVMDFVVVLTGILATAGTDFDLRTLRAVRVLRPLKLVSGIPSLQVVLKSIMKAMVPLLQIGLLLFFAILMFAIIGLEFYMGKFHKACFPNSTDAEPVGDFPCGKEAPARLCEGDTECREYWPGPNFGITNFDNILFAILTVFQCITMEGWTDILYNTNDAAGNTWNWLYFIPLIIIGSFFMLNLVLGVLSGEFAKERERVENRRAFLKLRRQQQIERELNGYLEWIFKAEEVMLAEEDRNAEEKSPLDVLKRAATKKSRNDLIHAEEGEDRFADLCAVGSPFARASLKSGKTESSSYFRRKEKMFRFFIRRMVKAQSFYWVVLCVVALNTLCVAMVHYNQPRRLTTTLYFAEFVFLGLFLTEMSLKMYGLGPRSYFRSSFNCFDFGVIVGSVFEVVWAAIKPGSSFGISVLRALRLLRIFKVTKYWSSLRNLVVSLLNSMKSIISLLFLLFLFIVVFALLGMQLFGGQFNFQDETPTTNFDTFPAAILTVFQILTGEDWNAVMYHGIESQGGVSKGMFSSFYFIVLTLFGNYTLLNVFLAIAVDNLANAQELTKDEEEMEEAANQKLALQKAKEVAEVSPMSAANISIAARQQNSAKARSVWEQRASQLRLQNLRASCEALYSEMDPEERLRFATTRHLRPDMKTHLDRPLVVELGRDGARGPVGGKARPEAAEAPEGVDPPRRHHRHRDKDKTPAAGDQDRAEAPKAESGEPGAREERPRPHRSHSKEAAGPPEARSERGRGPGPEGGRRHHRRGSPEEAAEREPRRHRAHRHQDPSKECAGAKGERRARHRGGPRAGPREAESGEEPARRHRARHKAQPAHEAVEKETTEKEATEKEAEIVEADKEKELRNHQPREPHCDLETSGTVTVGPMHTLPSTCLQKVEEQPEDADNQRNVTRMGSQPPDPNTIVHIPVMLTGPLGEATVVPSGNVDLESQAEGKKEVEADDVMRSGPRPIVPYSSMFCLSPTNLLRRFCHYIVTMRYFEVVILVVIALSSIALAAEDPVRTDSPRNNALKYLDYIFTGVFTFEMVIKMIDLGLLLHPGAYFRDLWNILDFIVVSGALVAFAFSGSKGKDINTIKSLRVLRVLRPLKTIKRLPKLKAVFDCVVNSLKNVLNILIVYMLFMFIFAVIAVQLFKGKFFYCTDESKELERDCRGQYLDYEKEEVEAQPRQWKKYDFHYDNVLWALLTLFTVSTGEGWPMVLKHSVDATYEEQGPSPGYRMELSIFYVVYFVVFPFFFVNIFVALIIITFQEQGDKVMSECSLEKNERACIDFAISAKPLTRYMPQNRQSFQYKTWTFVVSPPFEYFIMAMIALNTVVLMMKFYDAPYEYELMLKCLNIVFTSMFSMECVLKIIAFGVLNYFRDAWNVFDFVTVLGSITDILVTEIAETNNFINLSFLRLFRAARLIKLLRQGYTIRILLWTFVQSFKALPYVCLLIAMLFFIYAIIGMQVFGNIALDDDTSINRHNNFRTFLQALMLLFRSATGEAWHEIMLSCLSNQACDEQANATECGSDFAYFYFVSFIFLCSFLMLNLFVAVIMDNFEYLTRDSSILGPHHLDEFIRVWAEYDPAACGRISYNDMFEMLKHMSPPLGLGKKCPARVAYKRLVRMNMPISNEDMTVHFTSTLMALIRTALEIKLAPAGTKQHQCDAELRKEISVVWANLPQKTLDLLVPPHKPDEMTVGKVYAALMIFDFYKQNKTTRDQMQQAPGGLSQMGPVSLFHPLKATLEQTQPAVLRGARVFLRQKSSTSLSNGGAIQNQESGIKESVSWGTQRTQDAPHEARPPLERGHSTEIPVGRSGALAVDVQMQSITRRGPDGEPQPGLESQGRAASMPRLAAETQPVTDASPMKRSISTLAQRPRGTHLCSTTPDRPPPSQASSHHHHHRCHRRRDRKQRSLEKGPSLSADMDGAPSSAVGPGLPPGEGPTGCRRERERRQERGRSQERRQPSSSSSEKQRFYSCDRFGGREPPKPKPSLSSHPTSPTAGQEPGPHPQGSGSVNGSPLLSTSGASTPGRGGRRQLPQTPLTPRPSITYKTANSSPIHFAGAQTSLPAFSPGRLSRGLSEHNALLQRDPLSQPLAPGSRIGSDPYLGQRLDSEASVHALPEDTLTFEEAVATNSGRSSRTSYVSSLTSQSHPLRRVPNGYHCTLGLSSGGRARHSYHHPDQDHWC
- Sequence (P54284 whole entry partner): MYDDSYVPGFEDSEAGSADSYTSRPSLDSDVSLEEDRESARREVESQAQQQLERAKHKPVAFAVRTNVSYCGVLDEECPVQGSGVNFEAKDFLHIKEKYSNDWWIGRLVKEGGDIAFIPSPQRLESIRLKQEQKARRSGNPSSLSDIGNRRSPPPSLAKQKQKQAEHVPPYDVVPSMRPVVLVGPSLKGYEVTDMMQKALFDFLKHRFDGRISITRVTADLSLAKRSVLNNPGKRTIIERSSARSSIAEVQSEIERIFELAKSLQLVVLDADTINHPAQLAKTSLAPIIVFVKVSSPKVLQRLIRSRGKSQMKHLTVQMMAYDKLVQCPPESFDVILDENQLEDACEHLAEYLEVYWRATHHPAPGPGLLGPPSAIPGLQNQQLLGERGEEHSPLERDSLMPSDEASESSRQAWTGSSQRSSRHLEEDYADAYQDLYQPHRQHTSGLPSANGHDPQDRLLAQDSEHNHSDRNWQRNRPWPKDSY
- Sequence (P54289 25-946 partner limits assumed): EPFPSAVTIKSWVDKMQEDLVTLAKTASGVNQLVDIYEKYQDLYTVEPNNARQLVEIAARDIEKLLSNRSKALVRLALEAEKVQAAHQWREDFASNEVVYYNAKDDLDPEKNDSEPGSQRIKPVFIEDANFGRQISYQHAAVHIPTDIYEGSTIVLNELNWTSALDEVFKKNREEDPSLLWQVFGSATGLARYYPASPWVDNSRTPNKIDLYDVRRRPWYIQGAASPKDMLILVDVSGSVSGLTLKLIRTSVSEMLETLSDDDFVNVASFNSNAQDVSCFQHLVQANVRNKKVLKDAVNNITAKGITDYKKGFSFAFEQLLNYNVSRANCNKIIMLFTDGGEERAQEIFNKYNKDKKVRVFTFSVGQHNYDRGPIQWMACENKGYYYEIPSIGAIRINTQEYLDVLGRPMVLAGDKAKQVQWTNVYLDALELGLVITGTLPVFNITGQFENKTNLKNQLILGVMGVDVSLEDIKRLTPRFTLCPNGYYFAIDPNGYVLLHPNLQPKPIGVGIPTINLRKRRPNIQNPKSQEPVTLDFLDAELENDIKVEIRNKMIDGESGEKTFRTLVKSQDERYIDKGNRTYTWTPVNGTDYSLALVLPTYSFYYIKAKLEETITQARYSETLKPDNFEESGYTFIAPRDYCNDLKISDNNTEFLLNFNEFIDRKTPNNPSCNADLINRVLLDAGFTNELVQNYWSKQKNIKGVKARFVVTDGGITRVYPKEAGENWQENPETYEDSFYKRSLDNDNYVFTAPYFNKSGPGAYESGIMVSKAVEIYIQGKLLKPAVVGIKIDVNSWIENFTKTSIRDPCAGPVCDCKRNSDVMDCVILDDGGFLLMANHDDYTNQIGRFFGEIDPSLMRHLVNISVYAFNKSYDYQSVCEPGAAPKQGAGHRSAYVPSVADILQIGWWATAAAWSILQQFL
- Sequence (P54289 947-1103 partner limits assumed): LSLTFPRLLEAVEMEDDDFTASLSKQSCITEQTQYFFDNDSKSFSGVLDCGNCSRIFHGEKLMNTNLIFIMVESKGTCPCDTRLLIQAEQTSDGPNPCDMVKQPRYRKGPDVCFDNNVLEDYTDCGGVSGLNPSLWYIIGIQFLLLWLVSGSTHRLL
- Protocol description: HEK assay (whole-cell patch clamp, transiently transfected HEK-293T/17 cells, pulses P1 and P5)
- Type: cell-based
- Condition label: first pulse (P1) of 5 Hz train, holding potential −100 mV, read-out: HEK Cav2.2 P1 IC50
pIC50: −log10 of the molar value. Where a name gives a salt, the structure may show the parent alone.
Endpoint name: pIC50

Examples from the recorded data:
CC(C)(C)C(=O)N(Cc1ccc(N2CC[C@H](Oc3ccccn3)C2)nc1)c1ccc(F)cc1 (stereo in doubt) [Compound 50]	5.43
CC(C)(C)C(=O)N(Cc1cnc(N2CCCCC2)nc1)c1ccc(F)cc1 [Compound 8, hydrochloride]	5.29
CN1CCN(c2ncc(CN(C(=O)C(C)(C)C)c3ccc(F)cc3)s2)CC1 [Compound 76]	4.54
CN(c1ccccn1)c1nc(CN(C(=O)C(C)(C)C)c2ccc(F)cc2)cs1 [Compound 93]	6.10
CCOC(=O)c1cn(C(C)(C)C(=O)N(Cc2ccc(N(CC)CC)nc2)c2ccc(F)cc2)nn1 [Compound 45]	4.97

[1] CC(C)(C)C(=O)N(Cc1ccc(N2CC[C@H](O)C2)nc1)c1ccc(F)cc1 [Compound 51]
[2] CC(=O)N1CCN(c2ccc(CN(C(=O)C(C)(C)C)c3ccc(F)cc3)cn2)CC1 [Compound 44]
[3] CC(C)(C)C(=O)N(Cc1ccc(N2CCC[C@H]2COc2ccccn2)nc1)c1ccc(F)cc1 [Compound 49]
[4] CN(C)c1ccc(N(Cc2csc(N(C)c3ccc(C(F)(F)F)cc3)n2)C(=O)C(C)(C)C)cc1 [Compound 89]
[5] CCN(CC)c1ccc(CN(C(=O)C(C)(C)n2cc(CN(C)C)nn2)c2ccc(F)cc2)cn1 [Compound 54]
Query: hey, can you rank those compounds up there by pIC50? biggest number first please I would appreciate it if you listed the labels in the requested order.
Reply: 4, 3, 5, 2, 1
(4: 5.96, 3: 5.64, 5: 5.05, 2: 4.74, 1: 4.47)

[P] CN(CCN1CCOCC1)c1ccc(CN(C(=O)C(C)(C)C)c2ccc(F)cc2)cn1 [Compound 20]
[Q] CC(C)(C)C(=O)N(Cc1csc(-c2ccncc2)n1)c1ccc(F)cc1 [Compound 75]
[R] CN(c1ccc(F)cc1)c1nc(CN(C(=O)C(C)(C)C)c2ccc(F)cn2)cs1 [Compound 82]
Query: Sort low-to-high on pIC50, please. I would appreciate it if you listed the labels in the requested order.
Reply: Q, P, R

[1] CCN(CC)c1ccc(CN(C(=O)C(C)(C)C)c2ccc(F)cc2C)cn1 [Compound 36]
[2] CN(c1ccccc1)c1nc(CN(C(=O)C(C)(C)C)c2ccc(F)cc2)cs1 [Compound 65]
Query: Given 1 and given 2 , which shows the smaller recorded pIC50? Reply briefly: the label of your chosen item.
Reply: 1
